experiment_description: Compatibility of cationic antibacterial agent with lithium citrate solution
Format: physicochemical
stated_conditions: 20% lithium citrate solution mixed 1:1 with 0.2% agent solution, room temperature, dark, 7 days
readout_name: Phenomenon (compatibility with lithium citrate solution)

Here is how some compounds turned out for Phenomenon (compatibility with lithium citrate solution).
- CCCCCCCCCCCC[N+](C)(C)Cc1ccccc1.[Br-] [dodecyl dimethyl benzyl ammonium bromide]: −
- N=C(NCCCCCCNC(=N)NC(=N)Nc1ccc(Cl)cc1)NC(=N)Nc1ccc(Cl)cc1.O=C(O)[C@H](O)[C@@H](O)[C@H](O)[C@H](O)CO.O=C(O)[C@H](O)[C@@H](O)[C@H](O)[C@H](O)CO [chlorhexidine gluconate, reference compound]: +
- CCCCCCCCCCCCCCCC[n+]1ccccc1.[Cl-] [hexadecyl pyridinium chloride, reference compound]: −
- CCCCCCCCCCCC[N+](C)(C)Cc1ccccc1.[Cl-]: −
- CCCCCCCCCCCC[N+](C)(C)C.[Cl-] [dodecyl trimethyl ammonium chloride]: −

We next turn to a different compound, shown below.
Ask: What value of measured Phenomenon (compatibility with lithium citrate solution) is listed for CC(=O)O.CC(=O)O.NC(=N\CCCCCC/N=C(N)/N=C(\N)Nc1ccc(Cl)cc1)/N=C(\N)Nc1ccc(Cl)cc1 [chlorhexidine acetate, reference compound] ?
Result: +

====

experiment_description: Compatibility of cationic antibacterial agent with lithium citrate solution
Format: physicochemical
readout_name: compatibility with lithium citrate (conclusion in words)

• CCCCCCCCCCCC[N+](C)(C)Cc1ccccc1.[Br-] [dodecyl dimethyl benzyl ammonium bromide] = compatible
• CCCCCCCCCCCCCCCC[n+]1ccccc1.[Cl-] [hexadecyl pyridinium chloride, reference compound] = compatible
• CCCCCCCCCCCC[N+](C)(C)Cc1ccccc1.[Cl-] = compatible
• CCCCCCCCCCCC[N+](C)(C)C.[Cl-] [dodecyl trimethyl ammonium chloride] = compatible
